Target: rat serum albumin (RSA) (Rattus norvegicus, UniProt P02770)
Construct: purchased Merck (Darmstadt, Germany) A6272
Sequence (P02770 25-608): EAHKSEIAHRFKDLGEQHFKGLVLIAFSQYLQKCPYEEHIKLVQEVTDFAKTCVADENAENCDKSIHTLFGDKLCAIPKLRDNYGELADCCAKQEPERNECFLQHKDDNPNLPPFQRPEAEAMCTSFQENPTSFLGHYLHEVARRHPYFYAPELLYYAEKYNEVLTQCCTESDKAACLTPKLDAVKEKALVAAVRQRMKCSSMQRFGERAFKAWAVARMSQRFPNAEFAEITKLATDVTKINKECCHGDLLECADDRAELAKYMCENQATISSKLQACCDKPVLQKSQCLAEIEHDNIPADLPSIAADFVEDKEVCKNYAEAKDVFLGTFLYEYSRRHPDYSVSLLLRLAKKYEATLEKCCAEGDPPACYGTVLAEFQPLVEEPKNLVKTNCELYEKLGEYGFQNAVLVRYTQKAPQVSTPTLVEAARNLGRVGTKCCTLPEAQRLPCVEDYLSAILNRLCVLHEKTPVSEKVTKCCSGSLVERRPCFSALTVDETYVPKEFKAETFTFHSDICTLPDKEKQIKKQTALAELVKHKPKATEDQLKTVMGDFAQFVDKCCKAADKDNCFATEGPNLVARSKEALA
Assay: biochemical
Assay type: binding
Conditions: ligand 0–30 μM, overall
Quantity: displacement of OTA from RSA (free fraction), in words

> print(dat)
                                   compound             assay.result
1         O=c1cc(-c2ccccc2)oc2cc(O)cc(O)c12  weak displacing effects
2  O=C(CCCCC(=O)Nc1c(I)cc(I)c(C(=O)O)c1I)Nc1c(I)cc(I)c(C(=O)O)c1I [iodipamide]  weak displacing effects

----------
Biological target: rat serum albumin (RSA) (Rattus norvegicus, UniProt P02770)
Construct: purchased Merck (Darmstadt, Germany) A6272
Experiment: Fluorescence emission intensity of OTA-RSA with ligands
Format: binding
Settings: ligand 0–30 μM; OTA 1.0 μM, RSA 1.5 μM; λex 393 nm, λem 446 nm; inner-filter corrected
Quantity: effect on emission signal of OTA-RSA complex, in words

> print(dat)
                                   compound                              assay.system      assay.result
1         O=c1cc(-c2ccccc2)oc2cc(O)cc(O)c12  rat serum albumin (RSA) (Rattus norvegicus, UniProt P02770)  strong decreases
2  O=c1cc(-c2ccccc2)oc2cc(OS(=O)(=O)O)cc(O)c12 [C7S, chrysin-7-sulfate]  rat serum albumin (RSA) (Rattus norvegicus, UniProt P02770)  strong decreases

----------
Molecular target: human serum albumin (HSA) (Homo sapiens)
Assay: biochemical
Quantity: Kd (nM)

> print(dat)
                            compound.string  readout.unit  assay.result
1  C[C@@H]1Cc2c(Cl)cc(C(=O)N[C@@H](Cc3ccccc3)C(=O)O)c(O)c2C(=O)O1            nM            40

----------
Biological target: human serum albumin (HSA) (Homo sapiens, UniProt P02768)
Construct: purchased Merck (Darmstadt, Germany) A1653
Sequence (P02768 25-609): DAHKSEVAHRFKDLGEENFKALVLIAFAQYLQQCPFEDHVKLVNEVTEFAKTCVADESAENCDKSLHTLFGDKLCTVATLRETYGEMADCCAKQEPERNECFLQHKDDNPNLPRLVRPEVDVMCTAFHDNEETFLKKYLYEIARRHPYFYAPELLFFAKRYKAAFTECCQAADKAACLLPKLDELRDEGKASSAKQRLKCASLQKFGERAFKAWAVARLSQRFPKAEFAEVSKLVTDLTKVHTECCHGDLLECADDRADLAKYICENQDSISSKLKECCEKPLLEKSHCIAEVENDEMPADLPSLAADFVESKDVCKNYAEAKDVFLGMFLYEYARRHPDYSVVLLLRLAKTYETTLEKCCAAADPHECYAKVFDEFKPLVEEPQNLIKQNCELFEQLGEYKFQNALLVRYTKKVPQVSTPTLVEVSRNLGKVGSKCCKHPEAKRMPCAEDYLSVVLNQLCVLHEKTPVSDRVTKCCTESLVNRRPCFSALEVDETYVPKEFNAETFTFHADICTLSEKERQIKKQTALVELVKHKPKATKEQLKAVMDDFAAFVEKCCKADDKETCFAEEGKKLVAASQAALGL
Test: Fluorescence anisotropy of OTA-HSA with ligands
Type: binding
Settings: ligand 0–30 μM; OTA 1.0 μM, HSA 1.5 μM
Quantity: effect on fluorescence anisotropy of OTA-HSA, in words

> print(dat)
                                   molecule                              assay.system             assay.result
1  O=C(CCCCC(=O)Nc1c(I)cc(I)c(C(=O)O)c1I)Nc1c(I)cc(I)c(C(=O)O)c1I [iodipamide]  human serum albumin (HSA) (Homo sapiens, UniProt P02768)  only slightly decreased
2  O=c1cc(-c2ccccc2)oc2cc(O)cc(O)c12 [CHR, Chrysin]  human serum albumin (HSA) (Homo sapiens, UniProt P02768)  only slightly decreased

----------
Target: human serum albumin (HSA) (Homo sapiens)
Construct: purchased Merck (Darmstadt, Germany) A1653
Assay: Fluorescence emission intensity of OTA-HSA with ligands
Type: binding
Details: ligand 0–30 μM; OTA 1.0 μM, HSA 1.5 μM; λex 393 nm, λem 446 nm; inner-filter corrected
Quantity: effect on emission signal of OTA-HSA complex, in words

> print(dat)
                                   compound      assay.result
1  O=c1cc(-c2ccccc2)oc2cc(OS(=O)(=O)O)cc(O)c12 [C7S, chrysin-7-sulfate]  strong decreases
2  O=c1cc(-c2ccccc2)oc2cc(O)cc(O)c12 [CHR, Chrysin]  strong decreases
